# ASSAY_SYSTEM: human GPR84 receptor (Homo sapiens, UniProt Q9NQS5)
# Construct: frozen aliquots prepared by acCELLerate
# Sequence (Q9NQS5 whole entry): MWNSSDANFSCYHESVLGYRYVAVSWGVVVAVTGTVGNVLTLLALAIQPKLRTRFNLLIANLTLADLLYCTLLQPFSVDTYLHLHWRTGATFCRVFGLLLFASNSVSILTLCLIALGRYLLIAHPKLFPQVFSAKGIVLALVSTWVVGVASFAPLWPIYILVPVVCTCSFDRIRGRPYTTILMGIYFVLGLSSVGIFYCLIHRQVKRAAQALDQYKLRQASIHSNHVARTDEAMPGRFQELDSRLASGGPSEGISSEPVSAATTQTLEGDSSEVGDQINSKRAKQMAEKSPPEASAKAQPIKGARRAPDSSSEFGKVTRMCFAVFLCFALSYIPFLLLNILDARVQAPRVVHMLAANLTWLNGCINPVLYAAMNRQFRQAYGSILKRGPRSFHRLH
# METHOD_DESCRIPTION: cAMP HTRF assay for identification of cellular GPR84 antagonists
# TEST_CONTEXT: CHO-K1 cells stably expressing human GPR84; Forskolin plus agonist 6-OAU; cAMP HTRF readout; average or median values
MEASURED_PROPERTY: IC50 (nM)

Qu. State its IC50: Cc1c(C(=O)N(C)CCO)oc2c1-c1nn(Cc3ccc(Cl)cc3)cc1CC2
Ans. 17000

I. Cc1ccccc1Cn1cc2c(n1)-c1c(oc(C(=O)NCC3CCCN3)c1C)CC2 (racemic) [Example 7-3]
II. Cc1c(C(=O)NCC2CCCO2)oc2c1-c1nn(Cc3ccc(Cl)cc3)cc1CC2 (single isomer, unassigned) [Example 21-2]
Qu. Look at I and II . Which one has the lower recorded IC50 number? Lab log: write the label of the selected item as the result.
Ans. II

---

# ASSAY_SYSTEM: human GPR84 receptor (Homo sapiens)
# Construct: frozen aliquots prepared by acCELLerate
# METHOD_DESCRIPTION: cAMP HTRF assay for identification of cellular GPR84 antagonists
# TEST_CONTEXT: CHO-K1 cells stably expressing human GPR84; Forskolin plus agonist 6-OAU; cAMP HTRF readout; average or median values
pIC50: −log10 of the molar value.
MEASURED_PROPERTY: pIC50

P. Cc1c(C(=O)N2CCC[C@@H]2C(N)=O)oc2c1-c1nn(Cc3ccc(Cl)cc3)cc1CC2
Q. Cc1ccccc1Cn1cc2c(n1)-c1c(oc(C(=O)NC[C@@H]3CCCO3)c1C)CC2
Qu. Please state the entry with greater pIC50 among P and Q . Lab log: write the label of the selected item as the result.
Ans. Q
(Q: 7.64, P: 4.79)

---

# ASSAY_SYSTEM: human GPR84 receptor (Homo sapiens, UniProt Q9NQS5)
# Construct: frozen aliquots prepared by acCELLerate
# METHOD_DESCRIPTION: cAMP HTRF assay for identification of cellular GPR84 antagonists
# TEST_CONTEXT: CHO-K1 cells stably expressing human GPR84; Forskolin plus agonist 6-OAU; cAMP HTRF readout; average or median values
MEASURED_PROPERTY: IC50 (µM)

I. Cc1c(C(=O)NCC(=O)N(C)C)oc2c1-c1nn(Cc3ccc(Cl)cc3)cc1CC2 [Example 36]
II. CCNC(=O)CNC(=O)c1oc2c(c1C)-c1nn(Cc3ccc(Cl)cc3)cc1CC2 [Example 30]
III. Cc1c(C(=O)NC(C)(C)C#N)oc2c1-c1nn(Cc3ccc(Cl)cc3)cc1CC2 [Example 86]
IV. Cc1c(C(=O)N2CC(Cc3ccccc3)C2)oc2c1-c1nn(Cc3ccc(Cl)cc3)cc1CC2 [Example 49]
V. CC(=O)N1CCN(C(=O)CNC(=O)c2oc3c(c2C)-c2nn(Cc4ccc(Cl)cc4)cc2CC3)CC1 [Example 29]
Qu. Number of compounds to sort: 5. Sort criterion: IC50, ascending. Lab note: record answer as labels in requested order.
Ans. II, I, IV, V, III

1. Cc1c(C(=O)NCC(=O)N2CCCC2)oc2c1-c1nn(Cc3ccc(Cl)cc3)cc1CC2 [Example 34]
2. Cc1c(C(=O)NCCN2CCCCC2)oc2c1-c1nn(Cc3ccccc3Cl)cc1CC2 [Example 13]
3. COCCNC(=O)CNC(=O)c1oc2c(c1C)-c1nn(Cc3ccc(Cl)cc3)cc1CC2 [Example 32]
Qu. Sort these compounds on IC50 so the largest reading comes first. Lab note: record answer as labels in requested order.
Ans. 3, 1, 2
(3: 2.46 µM, 1: 1.14 µM, 2: 0.36 µM)

1. Cc1c(C(=O)N(C)Cc2cnn(C)c2)oc2c1-c1nn(Cc3ccc(Cl)cc3)cc1CC2 [Example 76]
2. Cc1c(C(=O)NCCN2CCCCC2)oc2c1-c1nn(Cc3ccc(Cl)cc3)cc1CC2 [Example 25]
3. Cc1c(C(=O)NCC(=O)NC2CC2)oc2c1-c1nn(Cc3ccc(Cl)cc3)cc1CC2 [Example 33]
Qu. Give the ascending ranking of the items by reported IC50. Lab note: record answer as labels in requested order.
Ans. 2, 3, 1
(2: 1.37 µM, 3: 3.31 µM, 1: 13 µM)

P. Cc1c(C(=O)N2CCC(C(N)=O)CC2)oc2c1-c1nn(Cc3ccc(Cl)cc3)cc1CC2 [Example 83]
Q. Cc1c(C(=O)N(C)Cc2cccnc2)oc2c1-c1nn(Cc3ccc(Cl)cc3)cc1CC2 [Example 69]
Qu. Please state the entry with greater IC50 among P and Q . Lab log: write the label of the selected item as the result.
Ans. P
(P: 16.4 µM, Q: 9.4 µM)

a. Cc1c(C(=O)NCC(F)F)oc2c1-c1nn(Cc3ccc(Cl)cc3)cc1CC2 [Example 65]
b. Cc1c(C(=O)NCC2CCCO2)oc2c1-c1nn(Cc3ccccc3Cl)cc1CC2 (racemic) [Example 9]
Qu. Look at a and b . Which one has the lower recorded IC50 number? Lab log: write the label of the selected item as the result.
Ans. b
(b: 0.046 µM, a: 7.45 µM)

I. Cc1c(C(=O)NCCN2CCN(C)CC2)oc2c1-c1nn(Cc3cccc(Cl)c3)cc1CC2 [Example 17]
II. Cc1c(C(=O)NCc2cnn(C)c2)oc2c1-c1nn(Cc3ccc(Cl)cc3)cc1CC2 [Example 47]
Qu. Please state the entry with greater IC50 among I and II . Lab log: write the label of the selected item as the result.
Ans. II

---

# ASSAY_SYSTEM: human GPR84 receptor (Homo sapiens, UniProt Q9NQS5)
# Construct: frozen aliquots prepared by acCELLerate
# METHOD_DESCRIPTION: cAMP HTRF assay for identification of cellular GPR84 antagonists
# TEST_CONTEXT: CHO-K1 cells stably expressing human GPR84; Forskolin plus agonist 6-OAU; cAMP HTRF readout; average or median values
pIC50: −log10 of the molar value.
MEASURED_PROPERTY: pIC50

1. Cc1c(C(=O)NCCCO)oc2c1-c1nn(Cc3ccc(Cl)cc3)cc1CC2
2. Cc1c(C(=O)NCc2ccnn2C)oc2c1-c1nn(Cc3ccc(Cl)cc3)cc1CC2
3. COCCN(C)C(=O)c1oc2c(c1C)-c1nn(Cc3ccc(Cl)cc3)cc1CC2
Qu. Number of compounds to sort: 3. Sort criterion: pIC50, ascending. Lab note: record answer as labels in requested order.
Ans. 3, 1, 2

---

# ASSAY_SYSTEM: human GPR84 receptor (Homo sapiens, UniProt Q9NQS5)
# Construct: frozen aliquots prepared by acCELLerate
# METHOD_DESCRIPTION: cAMP HTRF assay for identification of cellular GPR84 antagonists
# TEST_CONTEXT: CHO-K1 cells stably expressing human GPR84; Forskolin plus agonist 6-OAU; cAMP HTRF readout; average or median values
pIC50: −log10 of the molar value.
MEASURED_PROPERTY: pIC50

Answered examples (3):
Qu. State its pIC50: Cc1c(C(=O)NCCN2CCC2)oc2c1-c1nn(Cc3ccccc3Cl)cc1CC2
Ans. 5.94

Qu. State its pIC50: Cc1c(C(=O)N(C)Cc2ccco2)oc2c1-c1nn(Cc3ccc(Cl)cc3)cc1CC2
Ans. 5.00

Qu. State its pIC50: Cc1c(C(=O)NCc2ncc[nH]2)oc2c1-c1nn(Cc3ccc(Cl)cc3)cc1CC2
Ans. 4.84

A. Cc1c(C(=O)NCCN2CCCC2)oc2c1-c1nn(Cc3ccc(Cl)cc3)cc1CC2
B. Cc1c(C(=O)NCC2CCCO2)oc2c1-c1nn(Cc3ccc(F)cc3Cl)cc1CC2 (racemic)
Qu. Look at A and B . Which one has the lower recorded pIC50 number? Lab log: write the label of the selected item as the result.
Ans. A

---

# ASSAY_SYSTEM: human GPR84 receptor (Homo sapiens, UniProt Q9NQS5)
# Construct: frozen aliquots prepared by acCELLerate
# METHOD_DESCRIPTION: cAMP HTRF assay for identification of cellular GPR84 antagonists
# TEST_CONTEXT: CHO-K1 cells stably expressing human GPR84; Forskolin plus agonist 6-OAU; cAMP HTRF readout; average or median values
pIC50: −log10 of the molar value.
MEASURED_PROPERTY: pIC50

Qu. State its pIC50: CCN(CC)C(=O)CNC(=O)c1oc2c(c1C)-c1nn(Cc3ccc(Cl)cc3)cc1CC2 [Example 31]
Ans. 5.60

a. Cc1c(C(=O)NCCN2CCN(C)CC2)oc2c1-c1nn(Cc3ccc(F)cc3Cl)cc1CC2 [Example 93]
b. Cc1c(C(=O)N2CCC(CO)CC2)oc2c1-c1nn(Cc3ccc(Cl)cc3)cc1CC2 [Example 79]
c. Cc1ccccc1Cn1cc2c(n1)-c1c(oc(C(=O)NC[C@@H]3COCCO3)c1C)CC2 [Example 5]
d. Cc1c(C(=O)NCCN2CCCC2)oc2c1-c1nn(Cc3ccccc3Cl)cc1CC2 [Example 12]
e. Cc1c(C(=O)NCc2cncn2C)oc2c1-c1nn(Cc3ccc(Cl)cc3)cc1CC2 [Example 54]
Qu. Give the ascending ranking of the items by reported pIC50. Lab note: record answer as labels in requested order.
Ans. b, e, a, d, c
(b: 4.81, e: 5.47, a: 6.09, d: 6.52, c: 8.05)

I. Cc1c(C(=O)NC[C@@H]2CCCO2)oc2c1-c1nn(C(C)c3ccccc3F)cc1CC2 (mixture of isomers) [Example 95]
II. Cc1c(C(=O)NCCN2CCN(C)CC2)oc2c1-c1nn(Cc3ccc(Cl)cc3)cc1CC2 [Example 23]
III. Cc1c(C(=O)NCC(C)(C)O)oc2c1-c1nn(Cc3ccc(Cl)cc3)cc1CC2 [Example 60]
Qu. Sort these molecules on pIC50 so the largest reading comes first. Lab note: record answer as labels in requested order.
Ans. II, I, III

a. Cc1c(C(=O)NCC2CCCO2)oc2c1-c1nn(Cc3ccc(Cl)cc3)cc1CC2 (single isomer, unassigned) [Example 21-1]
b. Cc1c(C(=O)NCc2ccno2)oc2c1-c1nn(Cc3ccc(Cl)cc3)cc1CC2 [Example 28]
Qu. Look at a and b . Which one has the lower recorded pIC50 number? Lab log: write the label of the selected item as the result.
Ans. b
(b: 6.00, a: 6.28)
